System: NCI-H2170
Assay: relative viability (nuclei count vs DMSO), 5 days (fraction); higher = more cells survive
Conditions: first compound 0.002 µM
Recorded relative viability, one value per entry.

Some solved cases for reference:
{"compound": "CCNC(=O)c1noc(-c2cc(C(C)C)c(O)cc2O)c1-c1ccc(CN2CCOCC2)cc1 [Luminespib] + O=C(c1cc(Cc2n[nH]c(=O)c3ccccc23)ccc1F)N1CCN(C(=O)C2CC2)CC1 [Olaparib] (partner 8 µM)", "relative viability": 0.659}
{"compound": "CCNC(=O)c1noc(-c2cc(C(C)C)c(O)cc2O)c1-c1ccc(CN2CCOCC2)cc1 [Luminespib] + COc1cc2c(Oc3ccc(NC(=O)C4(C(=O)Nc5ccc(F)cc5)CC4)cc3F)ccnc2cc1OCCCN1CCOCC1 [Foretinib] (partner 0.25 µM)", "relative viability": 0.986}
{"compound": "CCNC(=O)c1noc(-c2cc(C(C)C)c(O)cc2O)c1-c1ccc(CN2CCOCC2)cc1 [Luminespib] + Nc1nc2[nH]cc(CCc3ccc(C(=O)N[C@@H](CCC(=O)O)C(=O)O)cc3)c2c(=O)[nH]1 [Pemetrexed] (partner 0.2 µM)", "relative viability": 0.291}
{"compound": "CCNC(=O)c1noc(-c2cc(C(C)C)c(O)cc2O)c1-c1ccc(CN2CCOCC2)cc1 [Luminespib] + Nc1ncn([C@H]2C[C@H](O)[C@@H](CO)O2)c(=O)n1 [Decitabine] (partner 2 µM)", "relative viability": 0.468}
{"compound": "CCNC(=O)c1noc(-c2cc(C(C)C)c(O)cc2O)c1-c1ccc(CN2CCOCC2)cc1 [Luminespib] + CC(=O)c1c(C)c2cnc(Nc3ccc(N4CCNCC4)cn3)nc2n(C2CCCC2)c1=O [Palbociclib] (partner 0.5 µM)", "relative viability": 0.41}

Now for the compound whose relative viability we want.
Q: What value of relative viability has been recorded for this entry: CCNC(=O)c1noc(-c2cc(C(C)C)c(O)cc2O)c1-c1ccc(CN2CCOCC2)cc1 [Luminespib] + O=C(CCCCCCC(=O)Nc1ccccc1)NO [Vorinostat] (partner 1 µM)
Result: 0.746
